# Test system: carbapenem-resistant clinical strain, WC-452
# experimental details: Checkerboard assay to examine synergy with antibiotics in CAA/HuS
# Format: cell-based, P. aeruginosa
# particulars: lysin + colistin
// reported FICI, Colistin for each item listed
Simply state the number, no unit and no words.

GN121: Modified GN37, C-terminal peptide RKKTRKRLKKIGKVLKWI, SEQ ID NO: 13 (protein) MTYTLSKRSLDNLKGVHPDLVAVVHRAIQLTPVDFAVIEGLRSVSRQKELVAAGASKTMNSRHLTGHAVDLAAYVNGIRWDWPLYDAIAVAVKAAAKELGVAIVWGGDWTTFKDGPHFELDRSKYRRKKTRKRLKKIGKVLKWI : 0.375
GN108: Native lysin, GenBank YP_009288673.1, SEQ ID NO: 26 (protein, Acinetobacter phage phiAB6) MILTKDGFSIIRNELFEGKLDQTQVDAINFIVEKATEYGLTYPEAAYLLATIYHETGLPSGYRTMQPIKEAGSDSYLRSKKYYPYIGYGYVQLTWEENYERIGKLIGIDLVKNPEKALEPLIAIQIAIKGMLNGWFTGVGFRRKRPVSKYNKQQYVAARNIINGKDKAELIAKYAIIFERALRSL : 0.133
GN147: Modified GN3, amino acid substitutions (R101D, R117H), SEQ ID NO: 5 (protein) MRTSQRGLSLIKSFEGLRLQAYQDSVGVWTIGYGTTRGVKAGMKISKDQAERMLLNDVQRFEPEVERLIKVPLNQDQWDALMSFTYNLGAANLESSTLRDLLNAGNYAAAAEQFPHWNKAGGQVLAGLTRRRAAERELFLGAA : 0.188

Consider the additional molecule presented here.
Query GN92: Modified GN4, N-terminal peptide KFFKFFKFFK with linker, SEQ ID NO: 7 (protein) KFFKFFKFFKAGAGAGAGAGAGAGAGASMRTSQRGIDLIKSFEGLRLSAYQDSVGVWTIGYGTTRGVTRYMTITVEQAERMLSNDIQRFEPELDRLAKVPLNQNQWDALMSFVYNLGAANLASSTLLKLLNKGDYQGAADQFPRWVNAGGKRLDGLVKRRAAERALFLEPLS yields FICI, Colistin of 0.094
